Biological target: human orexin-2 receptor (Homo sapiens, UniProt O43614)
Construct: expressed in transfected cells; host or cells: CHO cells (G418 selection)
Sequence (O43614 1-444): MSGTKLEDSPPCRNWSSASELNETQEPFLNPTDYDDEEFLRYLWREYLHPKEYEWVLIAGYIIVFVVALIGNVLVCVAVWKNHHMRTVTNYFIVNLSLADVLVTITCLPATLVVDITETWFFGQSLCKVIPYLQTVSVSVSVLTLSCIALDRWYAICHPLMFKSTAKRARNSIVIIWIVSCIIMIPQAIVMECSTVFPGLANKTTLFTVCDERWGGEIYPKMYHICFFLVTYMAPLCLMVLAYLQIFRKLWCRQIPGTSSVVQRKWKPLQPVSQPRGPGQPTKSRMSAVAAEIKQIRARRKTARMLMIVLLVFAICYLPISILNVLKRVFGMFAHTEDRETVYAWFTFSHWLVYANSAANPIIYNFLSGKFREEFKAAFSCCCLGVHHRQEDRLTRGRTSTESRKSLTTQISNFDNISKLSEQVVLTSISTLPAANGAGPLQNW
Experiment: Intracellular calcium measurements (FLIPR), orexin receptor antagonistic activity, OX2
Assay type: cell-based
Settings: CHO cells expressing human orexin-2 receptor; 3 nM orexin-A; FLIPR Tetra, non-optimized conditions
Entries and their measured IC50 follow.
Kindly answer with a numeric value in nM, unit omitted.

Below, 2 compounds whose answers are already recorded.
query: Using the record for Cc1nc(C(=O)N2C[C@@H]3CC(C)C[C@@H]3[C@H]2CNC(=O)c2c(C)nc3sccn23)c(-c2ccc(F)c(F)c2)s1 (some centres unmarked) [Example 51] , report its IC50.
result: 94

query: Data request, read-out IC50, for COc1cccc(-c2sc(C)nc2C(=O)N2C[C@@H]3CCC[C@@H]3[C@H]2CNC(=O)c2c(C)nc3sccn23)c1 [Example 33]
result: 17

***
query: What value of measured IC50 is listed for Cc1nc(C(=O)N2C[C@@H]3CC(C)C[C@@H]3[C@H]2CNC(=O)c2c(C)nc3sccn23)c(-c2cccc(C(F)(F)F)c2)s1 (some centres unmarked) [Example 36] ?
result: 262

query: What does the data say about its IC50? Entry: Cc1nc2sccn2c1C(=O)NC[C@@H]1[C@H]2CCC[C@H]2CN1C(=O)c1ccccc1-c1ccccc1 [Example 60]
result: 21

query: Bench note: what IC50 did Cc1nc2sccn2c1C(=O)NC[C@@H]1[C@H]2CCC[C@H]2CN1C(=O)c1nc(N)sc1-c1cccc(F)c1 [Example 70] show?
result: 20
